B1: SLC35F2 (parent)
chain: FVAFALCMFCLYSFMPLVIKVTSA

- Variants of: B1
- Test Method Notes: protein stability index of a GFP-peptide fusion (GPS, HEK-293T) (PSI 1-6); higher = more stable;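 further: lentivirally expressed fusions sorted by FACS into six bins by GFP to DsRed ratio, PSI derived from sequencing read proportions per bin multiplied by bin number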
- Experimental Setup: c terminus: a fixed tail appended
# protein stability index per record follows
Write the number on its own, no unit after it.

Worked set:
Variant | Assay Endpoint | Value Observed
L11S | protein stability index | 4.04
K20I | protein stability index | 2.63
F1N | protein stability index | 3.06
F1A | protein stability index | 2.36
A24T | protein stability index | 3.11
L17Y | protein stability index | 3.6

Retrieve protein stability index measured for `L11A` and print it.
3.07

Retrieve protein stability index measured for `C10Q` and print it.
3.47

Retrieve protein stability index measured for `L6Y` and print it.
3.21

Retrieve protein stability index measured for `V2N` and print it.
3.7

Retrieve protein stability index measured for `S23A` and print it.
2.39

Retrieve protein stability index measured for `A5L` and print it.
2.47

Retrieve protein stability index measured for `M8L` and print it.
2.67

Retrieve protein stability index measured for `S13F` and print it.
2.8
